Give IC50 for every item shown.
# System Tested: AR wt (Homo sapiens, UniProt P10275)
# Experimental Protocol: Transcription assay (ARE-luciferase reporter) in CV-1 cells, wild-type AR
One number for each entry, in nM.

CN(C)CCCOc1cccc(-c2ccccc2S(=O)(=O)CC(C)(O)C(=O)Nc2ccc(C#N)c(C(F)(F)F)c2)c1 (centres unmarked) = 3500
CN(C)CCCOc1ccccc1Cc1ccccc1S(=O)(=O)CC(C)(O)C(=O)Nc1ccc(C#N)c(C(F)(F)F)c1 (centres unmarked) = 2400
CN(C)CCCOc1ccc(-c2ccccc2S(=O)(=O)CC(C)(O)C(=O)Nc2ccc(C#N)c(C(F)(F)F)c2)cc1 (centres unmarked) = 2300
CC(O)(CS(=O)(=O)c1ccccc1-c1ccccc1O)C(=O)Nc1ccc(C#N)c(C(F)(F)F)c1 (centres unmarked) = 1200

# context switch: different compound, same IC50
Given the compound CN(C)CCCOc1cccc(Cc2ccccc2S(=O)(=O)CC(C)(O)C(=O)Nc2ccc(C#N)c(C(F)(F)F)c2)c1 (centres unmarked) , what is its reported IC50?
2000

* * *

# System Tested: AR wt (Homo sapiens)
# Sequence (P10275 1-920): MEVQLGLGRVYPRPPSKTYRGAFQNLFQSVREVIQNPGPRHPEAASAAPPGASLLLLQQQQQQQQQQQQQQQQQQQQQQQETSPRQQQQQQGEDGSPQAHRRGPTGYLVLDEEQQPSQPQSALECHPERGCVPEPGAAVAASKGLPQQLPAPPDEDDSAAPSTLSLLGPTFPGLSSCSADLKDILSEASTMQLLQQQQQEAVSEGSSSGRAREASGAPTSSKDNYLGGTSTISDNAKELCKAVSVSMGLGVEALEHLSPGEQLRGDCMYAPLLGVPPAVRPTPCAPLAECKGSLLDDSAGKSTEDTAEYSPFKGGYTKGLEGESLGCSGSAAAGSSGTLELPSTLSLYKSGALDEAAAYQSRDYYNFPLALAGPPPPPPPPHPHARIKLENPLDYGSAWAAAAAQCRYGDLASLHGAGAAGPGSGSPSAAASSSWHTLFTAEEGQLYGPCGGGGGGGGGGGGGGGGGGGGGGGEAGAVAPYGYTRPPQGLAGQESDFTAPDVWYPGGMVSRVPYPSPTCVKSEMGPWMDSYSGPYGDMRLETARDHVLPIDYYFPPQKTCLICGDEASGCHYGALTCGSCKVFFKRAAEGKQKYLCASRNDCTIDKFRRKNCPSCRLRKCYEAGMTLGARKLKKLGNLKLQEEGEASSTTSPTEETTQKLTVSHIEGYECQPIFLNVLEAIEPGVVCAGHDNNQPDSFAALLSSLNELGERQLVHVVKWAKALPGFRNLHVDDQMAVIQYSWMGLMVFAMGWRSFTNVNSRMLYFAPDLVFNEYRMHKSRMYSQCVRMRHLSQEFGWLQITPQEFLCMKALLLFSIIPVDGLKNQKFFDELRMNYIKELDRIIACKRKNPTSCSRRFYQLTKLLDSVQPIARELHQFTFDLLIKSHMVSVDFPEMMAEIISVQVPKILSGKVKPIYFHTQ
Give Ki for every item shown.
One number for each entry, in µM.

Example entries and their recorded answers appear below.
CN(C)CCCOc1ccccc1Cc1ccccc1S(=O)(=O)CC(C)(O)C(=O)Nc1ccc(C#N)c(C(F)(F)F)c1 (stereo not shown) [PAN12] = 5.8
CN(C)CCCOc1cccc(-c2ccccc2S(=O)(=O)CC(C)(O)C(=O)Nc2ccc(C#N)c(C(F)(F)F)c2)c1 (stereo not shown) [PAN52] = 3
CN(C)CCCOc1cccc(Cc2ccccc2S(=O)(=O)CC(C)(O)C(=O)Nc2ccc(C#N)c(C(F)(F)F)c2)c1 (stereo not shown) [PAN22] = 2.3

Please find the next compound below.
Fill blank: measured Ki of the compound CN(C)CCCOc1ccc(-c2ccccc2S(=O)(=O)CC(C)(O)C(=O)Nc2ccc(C#N)c(C(F)(F)F)c2)cc1 (stereo not shown) [PAN62] is ____.
25

* * *

# System Tested: AR T877A (Homo sapiens, UniProt P10275, T878A)
# Experimental Protocol: Transcription assay (ARE-luciferase reporter) in CV-1 cells, AR T877A
# Type: cell-based
# Set-up: expressed in transfected cells; host or cells: CV-1
Assay Metric: pIC50
One number for each entry, as −log10 of the molar value.

CN(C)CCCOc1ccc(-c2ccccc2S(=O)(=O)CC(C)(O)C(=O)Nc2ccc(C#N)c(C(F)(F)F)c2)cc1 (centres unmarked) [PAN62] = 5.30
CN(C)CCCOc1ccccc1Cc1ccccc1S(=O)(=O)CC(C)(O)C(=O)Nc1ccc(C#N)c(C(F)(F)F)c1 (centres unmarked) [PAN12] = 5.39
CN(C)CCCOc1cccc(Cc2ccccc2S(=O)(=O)CC(C)(O)C(=O)Nc2ccc(C#N)c(C(F)(F)F)c2)c1 (centres unmarked) [PAN22] = 5.74
CN(C)CCCOc1cccc(-c2ccccc2S(=O)(=O)CC(C)(O)C(=O)Nc2ccc(C#N)c(C(F)(F)F)c2)c1 (centres unmarked) [PAN52] = 5.40

Next item in the queue.
Fill blank: measured pIC50 of the compound CC(O)(CS(=O)(=O)c1ccccc1-c1ccccc1O)C(=O)Nc1ccc(C#N)c(C(F)(F)F)c1 (centres unmarked) [PAN41] is ____.
5.41

* * *

# System Tested: AR W741C (Homo sapiens, UniProt P10275, W742C)
# Experimental Protocol: Transcription assay (ARE-luciferase reporter) in CV-1 cells, AR W741C
Kindly supply the reported IC50 values for the records listed here.
Give bare numbers, in µM.

# example entries with known answers
CN(C)CCCOc1cccc(-c2ccccc2S(=O)(=O)CC(C)(O)C(=O)Nc2ccc(C#N)c(C(F)(F)F)c2)c1 (stereo not shown) [PAN52] = 5.9
CN(C)CCCOc1ccc(-c2ccccc2S(=O)(=O)CC(C)(O)C(=O)Nc2ccc(C#N)c(C(F)(F)F)c2)cc1 (stereo not shown) [PAN62] = 15

Provide IC50 for all items below, preserving their order.
1. CC(O)(CS(=O)(=O)c1ccccc1-c1ccccc1O)C(=O)Nc1ccc(C#N)c(C(F)(F)F)c1 (stereo not shown) [PAN41]
2. CN(C)CCCOc1cccc(Cc2ccccc2S(=O)(=O)CC(C)(O)C(=O)Nc2ccc(C#N)c(C(F)(F)F)c2)c1 (stereo not shown) [PAN22]

1: 8; 2: 5.6

* * *

# System Tested: AR wt (Homo sapiens, UniProt P10275)
# Sequence (P10275 1-920): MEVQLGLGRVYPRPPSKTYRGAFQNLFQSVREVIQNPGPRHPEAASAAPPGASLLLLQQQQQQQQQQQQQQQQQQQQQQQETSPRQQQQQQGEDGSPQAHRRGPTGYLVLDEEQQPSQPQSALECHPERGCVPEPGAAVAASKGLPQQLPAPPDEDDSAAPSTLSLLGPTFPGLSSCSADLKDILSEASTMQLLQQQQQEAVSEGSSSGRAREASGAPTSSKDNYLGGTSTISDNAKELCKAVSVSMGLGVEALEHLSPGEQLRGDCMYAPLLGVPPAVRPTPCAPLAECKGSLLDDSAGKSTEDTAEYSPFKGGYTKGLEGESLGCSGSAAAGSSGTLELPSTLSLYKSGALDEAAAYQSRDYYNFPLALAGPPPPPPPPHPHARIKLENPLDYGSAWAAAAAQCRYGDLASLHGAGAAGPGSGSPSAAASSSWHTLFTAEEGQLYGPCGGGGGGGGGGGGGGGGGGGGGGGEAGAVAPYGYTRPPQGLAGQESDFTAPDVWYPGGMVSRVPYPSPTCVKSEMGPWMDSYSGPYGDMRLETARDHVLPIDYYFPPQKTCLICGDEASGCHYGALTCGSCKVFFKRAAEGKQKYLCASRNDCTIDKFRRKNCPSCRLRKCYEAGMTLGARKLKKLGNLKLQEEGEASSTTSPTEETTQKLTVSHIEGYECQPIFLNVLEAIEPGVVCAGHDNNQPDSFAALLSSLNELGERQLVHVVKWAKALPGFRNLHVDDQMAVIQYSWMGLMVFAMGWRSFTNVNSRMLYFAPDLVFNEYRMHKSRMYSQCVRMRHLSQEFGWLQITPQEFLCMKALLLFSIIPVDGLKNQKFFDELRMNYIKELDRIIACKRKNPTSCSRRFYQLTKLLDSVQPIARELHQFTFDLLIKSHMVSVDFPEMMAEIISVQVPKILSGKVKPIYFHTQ
# Experimental Protocol: Transcription assay (ARE-luciferase reporter) in CV-1 cells, wild-type AR
# Assay type: cell-based
# Set-up: expressed in transfected cells; host or cells: CV-1
# Condition: in competition with 3 nM DHT; normalized to 10 nM DHT in hAR(wt)
# Method: Twenty-four hours prior to transfection, CV-1 cells were seeded at a density of 45,000 cells per well in 24-well cell culture plates and grown in phenol red free Dulbecco's Modified Eagle Medium (DMEM) supplemented with 10% cosmic calf serum (COS). […] Dose-response data was analyzed by nonlinear regression analysis using GraphPad Prism.
Assay Metric: Antagonist efficacy (RLU value at IC50), AR wt

CN(C)CCCOc1ccccc1Cc1ccccc1S(=O)(=O)CC(C)(O)C(=O)Nc1ccc(C#N)c(C(F)(F)F)c1 (centres unmarked) [PAN12] = (59%)
